From: patent US20230322953A1

Target: T1, human BCMA (human, UniProt Q02223 1-184)
T1 construct: whole, on cells; the cell line is named under assay; also called TNFRSF17; CD269
T1 sequence (looked up): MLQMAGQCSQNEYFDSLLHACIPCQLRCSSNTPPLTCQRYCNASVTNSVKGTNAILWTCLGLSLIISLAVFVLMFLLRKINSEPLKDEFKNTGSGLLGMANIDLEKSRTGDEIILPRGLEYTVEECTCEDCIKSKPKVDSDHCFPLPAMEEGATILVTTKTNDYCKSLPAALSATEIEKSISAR
Test: flow cytometry, NCI-H929 cells, Flag-tagged VH single domain, anti-tag secondary antibody
Label satisfied when EC50 is strictly below 2 nM; otherwise label not satisfied.

>  <BINDER>
PR004565, PR001046 VH-derived single-domain variant 1046-R2-2G4 (VHH, Tested as VH single domain with Flag and His tags; not shown: Flag and His tags) VHH: EVQLVETGGGLIQPGGSLRLSCAASGFTVSDAYMTWVRQAPGKGLEWVSVIFSGGNTYVSDSVKGRFTISRDNAKNTLYLQMNSLRAEDTALYYCARRNYDQTIGTDVFDIWGQGTMVTVSS

>  <ASSIGNED_LABEL>
not satisfied

$$$$
>  <BINDER>
PR004560, PR001046 VH-derived single-domain variant 1046-R2-10F1 (VHH, Tested as VH single domain with Flag and His tags; not shown: Flag and His tags) VHH: EVQLVETGGGLIQPGGSLRLSCAASGFTVSDAYMTWVRQAPGKGLEWVSVIFSGGNTYVSDSVKGRFTISRDNAKNTLYLQMNSLRAEDTALYYCARRNYDQTRGTDVFDIWGQGTMVTVSS

>  <ASSIGNED_LABEL>
not satisfied

$$$$
>  <BINDER>
PR004571, PR001046 VH-derived single-domain variant 1046-R2-6F1 (VHH, Tested as VH single domain with Flag and His tags; not shown: Flag and His tags) VHH: EVQLVETGGGLIQPGGSLRLSCAASGFTVSDSYMTWVRQAPGKGLEWVSVIFSGGKTYYSDSVKGRFTISRDNAKNTLYLQMNSLRAEDTALYYCARRNYDQTIGTDVFDIWGQGTMVTVSS

>  <ASSIGNED_LABEL>
not satisfied

$$$$
>  <BINDER>
PR004566, PR001046 VH-derived single-domain variant 1046-R2-4G10 (VHH, Tested as VH single domain with Flag and His tags; not shown: Flag and His tags) VHH: EVQLVETGGGLIQPGGSLRLSCAASGFTVSDSYMTWVRQAPGKGLEWVSVIFSGGRTYYSDSVKGRFTISRDNAKNTLYLQMNSLRAEDTALYYCARRNYDDTRGTDVFDIWGQGTMVTVSS

>  <ASSIGNED_LABEL>
not satisfied

$$$$
>  <BINDER>
PR004573, PR001046 VH-derived single-domain variant 1046-R2-8B1 (VHH, Tested as VH single domain with Flag and His tags; not shown: Flag and His tags) VHH: EVQLVETGGGLIQPGGSLRLSCAASGFTVSDSYMTWVRQAPGKGLEWVSVIFSGGKTYYADSVKGRFTISRDNAKNTLYLQMNSLRAEDTALYYCARRNYDDTRGTDVFDIWGQGTMVTVSS

>  <ASSIGNED_LABEL>
satisfied

$$$$
>  <BINDER>
PR004572, PR001046 VH-derived single-domain variant 1046-R2-7E7 (VHH, Tested as VH single domain with Flag and His tags; also called PR001046-R2-7E7; not shown: Flag and His tags) VHH: EVQLVETGGGLIQPGGSLRLSCAASGFTVSDSYMTWVRQAPGKGLEWVSVIFSGGKTYVADSVKGRFTISRDNAKNTLYLQMNSLRAEDTALYYCARRNYDDTRGTDVFDIWGQGTMVTVSS

>  <ASSIGNED_LABEL>
satisfied

$$$$
